Cited source for all entries: PubChem BioAssay AID588397

- testName: qHTS of small molecules that selectively kill Giardia lamblia: Hit Validation.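 Note: viability measured as ATP content by luminescence so killing lowers signal; trophozoites exposed to compounds for 48 h anaerobically at 37 °C; nearly all actives have a fitted effect of over 65% in size.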
- experimentalParameters: Giardia lamblia trophozoite viability, dose-response; series mostly up to 38.3 µM
Screen size: about 1,300 compounds; about 1,000 (77%) were called active. Inconclusive results (about 7%) are left out. Calls come from the whole dose curve; as a rule, active = well fitted inhibition curve with a large enough effect; inconclusive = small, poorly fitted or top-dose-only effect; inactive = no such curve, though single readings can be large or run the other way. So high a share suggests a set chosen from earlier hits. This is one part of the list.
Your response should consist of one outcome taken from yes for active, no for inactive

These solved cases illustrate the format of a correct answer.
O=C(N/N=C/c1ccc([N+](=O)[O-])o1)c1cc2c(ccc3ccccc32)o1; yes
COC(=O)[C@@]12CCCCN1[C@H](c1ccc(-c3ccc(C(C)=O)cc3)cc1)[C@@H]1C(=O)N(C)C(=O)[C@@H]12; no
O=C(N/N=C/c1ccc([N+](=O)[O-])o1)c1cc2ccccc2o1; yes

Qu. Outcome logged for O=C(N/N=C/c1ccc([N+](=O)[O-])o1)c1sc2ccccc2c1Cl in this assay:
Ans. yes

Qu. Outcome logged for NC(=S)NN=C1CCCCCCCC1 in this assay:
Ans. yes

* * *

- testName: qHTS of small molecules that selectively kill Giardia lamblia: Hit Validation.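 Note: viability measured as ATP content by luminescence so killing lowers signal; trophozoites exposed to compounds for 48 h anaerobically at 37 °C; nearly all actives have a fitted effect of over 65% in size.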
- experimentalParameters: Giardia lamblia trophozoite viability, dose-response; series mostly up to 38.3 µM
Among all 1,300 compounds or so, about 1,000 (77%) were called active. About 7% were inconclusive and are not listed. Calls follow the shape of the dose curve; as a rule, active = well fitted inhibition curve with a large enough effect; inconclusive = small, poorly fitted or top-dose-only effect; inactive = no such curve, though single readings can be large or run the other way. The set was probably picked from earlier hits. This is one part of the list.
Your response should consist of one outcome taken from t (active), f (inactive)

These solved cases illustrate the format of a correct answer.
CC(=O)c1c(C)[nH]c(C(=O)OCC(=O)Nc2cc(Cl)ccc2[N+](=O)[O-])c1C; t
Cc1ccc(S(=O)(=O)N2[C@@H](c3ccccc3)C(C(=O)O)=CC[C@H]2c2cccc(Cl)c2)cc1; t
CCCCCCSc1ccc([C@H]2N[C@@](Cc3ccccc3)(C(=O)OC)[C@H]3C(=O)N(C)C(=O)[C@@H]23)cc1; f
Cc1ccc(C(=O)Nc2ccc3c(c2)OCCO3)o1; t
COc1ccc(CCN=c2c([N+](=O)[O-])nn(-c3cccc(C)c3)n2O)cc1OC; t

Qu. Outcome logged for Cc1ccc(S(=O)(=O)N2[C@@H](c3ccc(F)cc3)C(C(=O)O)=CC[C@H]2c2ccc3c(c2)OCO3)cc1 in this assay:
Ans. f

Qu. Outcome logged for COc1cc(C(=O)/C=C/c2cccnc2)c([N+](=O)[O-])cc1OC in this assay:
Ans. t

Qu. Outcome logged for Cc1ccc(S(=O)(=O)N2[C@@H](c3ccc(F)cc3)C(C(=O)O)=CC[C@H]2c2ccc(Cl)cc2)cc1 in this assay:
Ans. f

Qu. Outcome logged for COc1ccc(NS(=O)(=O)c2cc(NC(=O)c3ccc(=O)[nH]c3)ccc2C)cc1 in this assay:
Ans. f

* * *

- testName: qHTS of small molecules that selectively kill Giardia lamblia: Hit Validation.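 Note: viability measured as ATP content by luminescence so killing lowers signal; trophozoites exposed to compounds for 48 h anaerobically at 37 °C; nearly all actives have a fitted effect of over 65% in size.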
- experimentalParameters: Giardia lamblia trophozoite viability, dose-response; series mostly up to 38.3 µM
Screen size: about 1,300 compounds; about 1,000 (77%) were called active. Another 7% or so got no clear call; they are omitted. Calls follow the shape of the dose curve; as a rule, active = well fitted inhibition curve with a large enough effect; inconclusive = small, poorly fitted or top-dose-only effect; inactive = no such curve, though single readings can be large or run the other way. The set was probably picked from earlier hits. Some of the results follow.
Your response should consist of one outcome taken from active, inactive

These solved cases illustrate the format of a correct answer.
O=[N+]([O-])c1nn(-c2ccccc2)n(O)c1=NC1CCN(Cc2ccccc2)CC1; active
CCn1nnc(NC(=O)c2ccc(C(C)(C)C)cc2)n1; active
Cc1cc(C2=NNC(=NC3CC3)SC2)c(C)n1-c1ccccc1F; active
Clc1ccc2c(N/N=C/c3ccccc3Br)ccnc2c1; active
Cc1ccc(/C=N/Nc2ccnc3cc(Cl)ccc23)c(C)c1; active
CN1C(=O)/C(=C/c2ccc(O)c([N+](=O)[O-])c2)NC1=S; active
O=C(Nc1ncccn1)c1ccc([N+](=O)[O-])o1; active
O=[N+]([O-])c1nn(-c2ccc3c(c2)OCCO3)n(O)c1=NC1CCN(Cc2ccccc2)CC1; active

Qu. Outcome logged for CCOC(=O)C1=C(C)N=c2s/c(=C/c3cccc([N+](=O)[O-])c3O)c(=O)n2C1c1cc(OC)c(OC)c(OC)c1 (stereo not given) in this assay:
Ans. active

Qu. Outcome logged for CCN1C[C@@H]2[C@@H]3C(=O)N(Cc4ccccc4)C(=O)[C@@H]3[C@](C)(C1=O)N2C(=O)c1ccccc1 in this assay:
Ans. inactive
